- protocol notes: in vitro
- condition parameters: human, hepg2 cells
readout label: CC50 at 48 h (µM)
The figure you give is taken to be in µM; do not add the unit.

| compound | CC50 at 48 h (µM) |
| --- | --- |
| COC(=O)C1=C(C)NC(C)=C(C(=O)OC(C)(C)CN(C)CCC(c2ccccc2)c2ccccc2)C1c1cccc([N+](=O)[O-])c1.Cl (stereo not shown) | 24.3 |
| CCN1C(=O)C2(CCN([S+](=O)([O-])c3cc(F)ccc3C)CC2)c2ccccc21 | 38.5 |
| CC(=O)c1cn(CCOc2ccc(F)cc2)c2ccccc12 | 43.2 |
| O=C(NC1CCN(c2cc(-c3cccs3)n[nH]2)CC1)c1cccc(OC(F)(F)F)c1 | 43.2 |
| O=C(Nc1nnc(SCc2ccc(F)cc2)s1)c1ccccn1 | 10.9 |

Reported CC50 at 48 h ( ClC(Cl)(Cl)c1nc2ccccc2n2nncc12 ) = 43.2

The reported value for CC1CCCCN1CCCNC(=O)c1ccc2c(c1)sc1nc(-c3ccc(F)cc3)cn12 (stereo not shown) in terms of CC50 at 48 h is 30.6

Reported CC50 at 48 h for COc1ccc2cc1Nc1ccc(cc1)C[C@H](NC(=O)CCc1ccccn1)C(=O)N(C)[C@@H](C(=O)NCc1ccccc1)C2 was 24.3

Notebook: O=C(Nc1ccc([C@H]2OCC(=O)N(Cc3ccncc3)[C@@H]2CO)cc1)c1ccc(C(F)(F)F)cc1 , CC50 at 48 h read as 27.3

CC50 at 48 h reported for this compound CCN(CC)CCNc1ccnc2cc(Cl)ccc12 : 30.6

Note to self: CC50 at 48 h recorded for COc1ccccc1CNCC(O)Cn1c2ccccc2c2ccccc21 (stereo not shown) was 34.3

// CC50 at 48 h lookup, compound = CCCN1CCN(CCCNC(=O)c2ccc3c(c2)sc2nc(-c4ccc(OCC)cc4)cn23)CC1 , result: 24.3

====

- System: Plasmodium falciparum Dd2-attB (parental line), asexual blood stages
- Construct: Dd2-attB, the isogenic parental line
- protocol notes: microbe, parasite or virus in culture
- Parameters: species or system P. falciparum Dd2-attB in human erythrocytes; SYBR Green-I proliferation assay, Dd2-attB parental line, asexual blood stages
- condition parameters: Plasmodium falciparum, DD2, Erythrocyte, 72 h, read-out: Calculated / Average Log AC50 (M), mean of replicates, 72 h (converted)
This section presents compounds with their documented AC50 values.

| molecular string | target | measured result |
| --- | --- | --- |
| C=C[S+](=O)([O-])N1CCCN(c2cc(N(CCC(=O)O)[S+](=O)([O-])C=C)nc(-c3ccccn3)n2)CC1 | Plasmodium falciparum Dd2-attB (parental line), asexual blood stages | 1.53e-05 M |

With Plasmodium falciparum Dd2-attB (parental line), asexual blood stages as the test system, Cc1cccc(CN2CCN(c3cnc4c(O)ccc(C(=O)O)c4c3)CC2)c1 showed AC50 of 1.78e-05 M

Form field AC50 for item O=[S+]([O-])(c1nc2ccccc2[nH]1)N(CCc1ccccc1)CCN1CCCCC1 on Plasmodium falciparum Dd2-attB (parental line), asexual blood stages: 4.15e-06 M

The reported AC50 value, Plasmodium falciparum Dd2-attB (parental line), asexual blood stages, for C=CC(=O)N1CCCN(c2cc(NCCC(=O)O)nc(-c3ccccn3)n2)CC1 reads 2.16e-05 M

====

- Test system: P. falciparum Dd2 Cytb F123L
- protocol notes: SYBR Green ABS proliferation assay, NCGC00473217 selected clone G08
- Format: cell-based, Plasmodium falciparum
- condition parameters: Plasmodium falciparum, DD2, NCGC00473217 selected clone G08; highest concentration 29 µM; read-out: AC50 [μM], Cytb F123L (converted)
readout label: AC50

Some entries whose results are on file:
| molecular string | target | AC50 |
| --- | --- | --- |
| CCCN1C(CC(C)C)=NS(=O)(=O)c2cc(NC(=O)c3sccc3C)ccc21 | P. falciparum Dd2 Cytb F123L | > 29 µM |
| CCCN1C(CC2CCC2)=NS(=O)(=O)c2cc(NC(=O)c3cccs3)ccc21 | P. falciparum Dd2 Cytb F123L | > 29 µM |
| CCCN1C(CC(C)C)=NS(=O)(=O)c2cc(NC(=O)c3ccsc3)ccc21 | P. falciparum Dd2 Cytb F123L | > 29 µM |
| CCCN1C(c2ccccc2)=NS(=O)(=O)c2cc(NC(=O)c3ccc(F)cc3)ccc21 | P. falciparum Dd2 Cytb F123L | 3.3 µM |

# next compound below
The recorded AC50 for CC(C)CC1=NS(=O)(=O)c2cc(NC(=O)c3cccs3)ccc2N1C is > 29 µM

====

- protocol notes: in vitro
- condition parameters: human
// reported viability at 48 h, 3 µM per item
Give just the numeric value; % need not be written.

Look over these answered cases.
| compound | display unit | viability at 48 h, 3 µM |
| --- | --- | --- |
| COc1cc2c(cc1OCc1ccccc1)N(C(=O)c1cc3ccccc3[nH]1)CC21CCN(C)CC1 | % | 98.9 |
| Cc1ccc(Cl)cc1NC(=O)c1cc2ccccc2cc1O | % | 69 |
| CCOc1cc(CNC(C)C(O)c2ccccc2)cc(Cl)c1OCC (stereo not drawn) | % | 88 |
| COc1ccc(-c2cc([C@H]3CN4CC[C@H]3C[C@@H]4CN[S+](=O)([O-])c3ccc(Cl)cc3)n(C)n2)cc1OC | % | 99.9 |
| COc1ccc(CN2CCCC(C(=O)c3ccc(Cl)cc3)C2)c(O)c1 (stereo not drawn) | % | 103 |
| O=C(Nc1ccccc1)OC[C@H]1C[C@@H]2CCN1C[C@@H]2c1cc(C2CCCC2)nc(-c2ccncc2)n1 | % | 105 |
| COc1cc2c(cc1Oc1cccc(N(C)C)c1)NC(=O)C21CCN(c2cnccn2)CC1 | % | 89.7 |
| CCCCCSc1cc(O)c(C(CNC)C(C)C)cc1OC (stereo not drawn) | % | 101 |

// viability at 48 h, 3 µM lookup, compound = Cc1cc(O)c(CN2CC=C(c3ccccc3)CC2)cc1C(C)C , result: 105

Entry CCOc1cc(C2NCc3ccccc3-n3cccc32)ccc1O (stereo not drawn) ; viability at 48 h, 3 µM = 95

Query CC(NCc1ccc(Cl)cc1Cl)C(O)c1ccccc1 (stereo not drawn) yields viability at 48 h, 3 µM of 104

Reported viability at 48 h, 3 µM ( CCC(CC)c1cc([C@H]2CN3CC[C@H]2C[C@@H]3CN[S+](=O)([O-])c2cccs2)nc(-c2ccncc2)n1 ) = 102

====

- Test system: Plasmodium falciparum Dd2 asexual blood stage parasites
- protocol notes: microbe, parasite or virus in culture
- Set-up: species or system Plasmodium falciparum Dd2 in human erythrocytes; single determination (one 11-point concentration-response curve)
- condition parameters: Plasmodium falciparum, DD2, Erythrocyte, 72 h; read-out: AC50
readout label: AC50 (µM)
Unit µM implied. Number only.

Answered examples (3):
| compound | target | display unit | AC50 |
| --- | --- | --- | --- |
| c1ccc(CNc2nc(-c3ccccn3)nc3ccccc23)cc1 | Plasmodium falciparum Dd2 asexual blood stage parasites | µM | 5.31 |
| CCCCNc1nc2sc3c(c2c(=O)n1-c1cccc(Cl)c1)CCN(C)C3 | Plasmodium falciparum Dd2 asexual blood stage parasites | µM | 9.44 |
| CCCc1nn2c(=O)cc(COC(=O)c3cccc(NC(=O)COc4ccccc4C)c3)nc2s1 | Plasmodium falciparum Dd2 asexual blood stage parasites | µM | 13.3 |

// below: AC50 requested for another compound
Recorded result, O=C1NC(=O)/C(=C\c2ccc(N3CCOCC3)o2)N1 , AC50: 9.44

====

- System: P. berghei-ANKA-GFP-LucCON liver stage parasites in HepG2-A16-CD81EGFP cells
- protocol notes: P. berghei liver stage Pb-Luc assay, Method 1 (UCSD, 1536-well)
- Type: cell-based, Plasmodium berghei
- condition parameters: Method 1; Decrease = decreasing P. berghei viability with dose, Increase = increasing signal, Inactive = no dose response
readout label: Max Resp (signal direction of the dose response)

Example compounds with recorded Max Resp (signal direction of the dose response):
| compound | measured result |
| --- | --- |
| COc1ccc(NC2=C(c3ccc(C(F)(F)F)cc3)C(=O)c3ccccc32)cc1 [NCGC00107310-01] | Decrease |
| COc1ccc(-c2c(C)nn3c(N)c(C#N)cnc23)cc1OC [MLS000718813-01] | Decrease |
| CCC(CC)c1cc([C@H]2CN3CC[C@H]2C[C@@H]3CNC(C)=O)nc(-c2ccncc2)n1 [NCGC00394634-01] | Decrease |
| Cc1ccc(/C=N/NC(=O)c2cc3ccccc3cc2O)o1 [MLS001219838-01] | Decrease |
| COc1ccc(-n2nc(C)c([C@@H]3C=C[C@@H](NCc4ccc(F)cc4)C3)c2C)cc1 [NCGC00421412-01] | Decrease |
| CCOC(=O)c1cnc(-n2nc(C)cc2C)nc1NC1CCCC1 [MLS000333072-01] | Inactive |
| CCC(CC)c1cc([C@H]2CN3CC[C@H]2C[C@@H]3CNC(=O)Cc2cccs2)nc(-c2ccncc2)n1 [NCGC00400345-01] | Decrease |
| O=C(CN1CCN(C(=O)c2ccco2)CC1)Nc1cc(Cl)ccc1Cl [MLS000122513-01] | Inactive |

Now for the compound whose Max Resp (signal direction of the dose response) we want.
CC(Sc1nc2ccccc2c(=O)n1C)C(=O)Nc1ccc2c(c1)OCCO2 (centres unmarked) [MLS002161477-01] on P. berghei-ANKA-GFP-LucCON liver stage parasites in HepG2-A16-CD81EGFP cells gives Max Resp (signal direction of the dose response) = Inactive
